Answer each item with its documented IC50.
Target: cGMP-specific 3',5'-cyclic phosphodiesterase (Homo sapiens, UniProt O76074)
Answers are plain numbers, in nM.

Worked cases, answers included:
CCN1C(=O)c2c(nc(C#Cc3ccccc3)n2Cc2ccc(Cl)cc2)N2C1=N[C@@H]1CCC[C@@H]12
5
CCN1C(=O)c2c(nc(OC)n2Cc2ccc(O)c(Br)c2)N2C1=N[C@@H]1CCC[C@@H]12
1.6

API: the following record is the query input.
[Q] # lookup: IC50 of CCN1C(=O)c2c(nc(OC)n2Cc2ccc(OC)c(C#N)c2)N2C[C@@H](Cc3ccccc3)N=C12
[A] 11

Attribution: ChEMBL document CHEMBL1147608
